- TARGET OR TEST SYSTEM: 5-Lipoxygenase from HWBL-1 20,000 xg Supernatant (Rattus norvegicus, UniProt P12527)
- Construct: 20,000 xg supernatant from 1.5 million homogenized HWBL-1 cells; endogenous in cells
- Sequence (P12527 1-673): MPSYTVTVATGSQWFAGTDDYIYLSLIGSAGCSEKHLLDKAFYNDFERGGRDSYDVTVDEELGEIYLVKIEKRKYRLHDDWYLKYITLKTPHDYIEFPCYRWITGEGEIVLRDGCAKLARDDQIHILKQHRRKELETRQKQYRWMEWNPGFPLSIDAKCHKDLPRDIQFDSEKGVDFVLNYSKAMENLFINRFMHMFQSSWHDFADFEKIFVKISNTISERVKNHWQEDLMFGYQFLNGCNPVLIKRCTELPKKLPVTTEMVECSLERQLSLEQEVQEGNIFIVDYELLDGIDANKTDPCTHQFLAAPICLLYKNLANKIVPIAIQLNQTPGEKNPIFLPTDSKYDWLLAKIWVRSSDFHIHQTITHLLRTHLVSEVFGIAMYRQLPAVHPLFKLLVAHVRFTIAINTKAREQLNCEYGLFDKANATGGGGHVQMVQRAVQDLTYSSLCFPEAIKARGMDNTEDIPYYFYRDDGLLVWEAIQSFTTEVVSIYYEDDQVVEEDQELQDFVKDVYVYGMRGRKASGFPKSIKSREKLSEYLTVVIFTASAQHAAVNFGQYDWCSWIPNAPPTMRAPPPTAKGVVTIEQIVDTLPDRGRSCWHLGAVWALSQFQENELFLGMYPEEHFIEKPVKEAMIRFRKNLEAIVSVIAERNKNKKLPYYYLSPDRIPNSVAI
- EXPERIMENTAL PROTOCOL: 5-lipoxygenase inhibition, 20,000 xg supernatant of homogenized HWBL-1 cells, radiolabeled arachidonic acid
- STUDY CONDITIONS: read-out: IC50 (in vitro inhibitory potency against 5-lipoxygenase)
- Method: Assays to determine 5-lipoxygenase inhibitory activity of representative compounds of the present invention were performed in […] incubations containing the 20,000 xg supernatant from 1.5 million homogenized HWBL-1 cells and various concentrations of the test compound. […] Reaction products were separated from nonconverted substrate by thin layer chromatography and measured by liquid scintillation spectroscopy. […]
Hi all, reminder that labels come from IC50, split as low: < 200 nM; medium: ≥ 200 nM and < 400 nM; high: ≥ 400 nM

// below: answered compounds
CN(CCN(O)C(N)=O)Cc1cccc(Oc2cc(Cl)cc(Cl)c2)c1 [Example 40]: low
NC(=O)N(O)CCNC(=O)c1ccc(-c2ccccc2)cc1 [Example 34]: medium
CC(C)Oc1cccc(C(=O)NCCN(O)C(N)=O)c1 [Example 46]: medium
NC(=O)N(O)CCCCNC(=O)c1cccc(Oc2ccccc2)c1 [Example 22]: medium
NC(=O)N(O)CCNC(=O)c1ccc(Oc2ccccc2)cc1 [Example 52]: low

## Task Lab log: NC(=O)N(O)CCNC(=O)c1ccc(Oc2ccc(F)cc2)o1 [Example 61] — assign IC50 category
## Result low

## Task Lab log: CNC(=O)N(O)CC(=O)N(C)c1cccc(Oc2ccccc2)c1 [5, step 3] — assign IC50 category
## Result high

## Task Lab log: NC(=O)N(O)CCNC(=O)c1ccc(Cl)cc1 [Example 20] — assign IC50 category
## Result high

## Task Lab log: CC(CCNC(=O)c1ccc(Oc2ccc(F)cc2)o1)N(O)C(N)=O (stereo not shown) [Example 88] — assign IC50 category
## Result medium

## Task Lab log: NC(=O)N(O)CCNC(=O)Cc1ccccc1Nc1c(Cl)cccc1Cl [Example 83] — assign IC50 category
## Result high

## Task Lab log: CCCCOc1cccc(C(=O)NCCN(O)C(N)=O)c1 [Example 19] — assign IC50 category
## Result medium

## Task Lab log: NC(=O)N(O)CCNC(=O)c1cscc1Sc1ccc(Cl)cc1 [Example 59] — assign IC50 category
## Result low

## Task Lab log: CC(C)(C)c1ccc(Oc2cccc(C(=O)NCCN(O)C(N)=O)c2)cc1 [Example 31] — assign IC50 category
## Result high

## Task Lab log: NC(=O)N(O)CCNC(=O)c1ccc2ccccc2n1 [Example 75] — assign IC50 category
## Result low

## Task Lab log: CC(Oc1ccccc1C(=O)NCCN(O)C(N)=O)c1ccccc1 (stereo not shown) [Example 87] — assign IC50 category
## Result medium

## Task Lab log: CC(Oc1ccc(C(=O)NCCN(O)C(N)=O)cc1)c1ccccc1 (stereo not shown) [Example 66] — assign IC50 category
## Result medium

###

# Lookup of reported inhibition in vivo at 100 µmol/kg keyed by entry
- Tested on: Leukotrienes
- EXPERIMENTAL PROTOCOL: inhibition of leukotriene biosynthesis in vivo, rat peritoneal anaphylaxis model, oral
- STUDY CONDITIONS: oral gavage, 100 μmol/kg, 1 h before antigen challenge, read-out: % Inhibition of Leukotrienes, Oral Dose at 100 μmol/kg
# value in %; strip the unit string

NC(=O)N(O)CCNC(=O)c1cccc(OCc2ccccc2)c1: 15
CN(CCN(O)C(N)=O)Cc1cccc(Oc2ccc(Cl)cc2)c1: 80

Memo: "NC(=O)N(O)CCNC(=O)c1cccc(Oc2ccc(Cl)cc2)c1" , reported inhibition in vivo at 100 µmol/kg: 99

Memo: "NC(=O)N(O)CCNC(=O)c1cccc(Oc2ccccn2)c1" , reported inhibition in vivo at 100 µmol/kg: 83

Memo: "NC(=O)N(O)CCNC(=O)c1cccc(Oc2ccccc2)c1" , reported inhibition in vivo at 100 µmol/kg: 84

Memo: "CN(CCN(O)C(N)=O)Cc1cccc(Oc2cc(Cl)cc(Cl)c2)c1" , reported inhibition in vivo at 100 µmol/kg: 76

Memo: "C[C@H](CN(O)C(N)=O)NC(=O)c1cccc(Oc2ccccc2)c1" , reported inhibition in vivo at 100 µmol/kg: 90

###

- TARGET OR TEST SYSTEM: 5-Lipoxygenase from HWBL-1 20,000 xg Supernatant (Rattus norvegicus, UniProt P12527)
- Construct: 20,000 xg supernatant from 1.5 million homogenized HWBL-1 cells; endogenous in cells
- EXPERIMENTAL PROTOCOL: 5-lipoxygenase inhibition, 20,000 xg supernatant of homogenized HWBL-1 cells, radiolabeled arachidonic acid
- STUDY CONDITIONS: read-out: IC50 (in vitro inhibitory potency against 5-lipoxygenase)
- Procedure: Assays to determine 5-lipoxygenase inhibitory activity of representative compounds of the present invention were performed in […] incubations containing the 20,000 xg supernatant from 1.5 million homogenized HWBL-1 cells and various concentrations of the test compound. […] Reaction products were separated from nonconverted substrate by thin layer chromatography and measured by liquid scintillation spectroscopy. […]
# Lookup of reported IC50 keyed by entry
# value in µM; strip the unit string

NC(=O)N(O)CC(=O)Nc1ccc(Oc2ccccc2)cc1: 3.5
NC(=O)N(O)CCNC(=O)c1cc2ccccc2o1: 1

Memo: CC(/C=C\c1cccc(Oc2ccccc2)c1)NC(=O)CN(O)C(N)=O (stereo not drawn) , reported IC50: 0.83

Memo: "NC(=O)N(O)CCNC(=O)c1ccc(Oc2ccccc2)o1" , reported IC50: 0.13

Memo: "CN(CCN(O)C(N)=O)C(=O)c1cccc(Oc2ccccc2)c1" , reported IC50: 0.64

Memo: "COc1ccc2cc(/C=C(\C)C(=O)NCCN(O)C(N)=O)ccc2c1" , reported IC50: 1

Memo: "NC(=O)N(O)CCNC(=O)c1cccc(OCc2ccccc2)c1" , reported IC50: 0.22

Memo: "COc1cccc(C(=O)NCCN(O)C(N)=O)c1" , reported IC50: 1.9

###

# Lookup of reported IC50 keyed by entry
- TARGET OR TEST SYSTEM: 5-Lipoxygenase from HWBL-1 20,000 xg Supernatant (Rattus norvegicus)
- Construct: 20,000 xg supernatant from 1.5 million homogenized HWBL-1 cells; endogenous in cells
- Sequence (P12527 1-673): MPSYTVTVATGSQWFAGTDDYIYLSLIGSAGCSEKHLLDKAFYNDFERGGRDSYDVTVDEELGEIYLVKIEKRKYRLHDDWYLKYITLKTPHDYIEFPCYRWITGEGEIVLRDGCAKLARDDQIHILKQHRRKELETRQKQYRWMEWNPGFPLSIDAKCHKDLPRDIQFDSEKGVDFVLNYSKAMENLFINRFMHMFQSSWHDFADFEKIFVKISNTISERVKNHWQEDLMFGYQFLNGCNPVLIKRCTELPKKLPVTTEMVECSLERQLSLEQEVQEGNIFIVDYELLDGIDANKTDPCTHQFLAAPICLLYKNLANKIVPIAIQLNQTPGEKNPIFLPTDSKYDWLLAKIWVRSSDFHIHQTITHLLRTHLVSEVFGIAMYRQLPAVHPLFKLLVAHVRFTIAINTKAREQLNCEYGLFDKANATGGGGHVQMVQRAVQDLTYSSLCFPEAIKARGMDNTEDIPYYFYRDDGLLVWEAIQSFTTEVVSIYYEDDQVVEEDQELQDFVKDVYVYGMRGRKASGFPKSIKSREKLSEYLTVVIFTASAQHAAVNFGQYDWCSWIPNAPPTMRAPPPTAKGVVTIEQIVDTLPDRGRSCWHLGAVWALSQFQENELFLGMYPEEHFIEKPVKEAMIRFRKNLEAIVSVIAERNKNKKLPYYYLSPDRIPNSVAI
- EXPERIMENTAL PROTOCOL: 5-lipoxygenase inhibition, 20,000 xg supernatant of homogenized HWBL-1 cells, radiolabeled arachidonic acid
- Type: biochemical
- STUDY CONDITIONS: read-out: IC50 (in vitro inhibitory potency against 5-lipoxygenase)
# value in nM; strip the unit string

CC(C(=O)NCCN(O)C(N)=O)c1cccc(C(C)c2ccccc2)c1 (stereo not drawn): 390

Memo: "NC(=O)N(O)CCNC(=O)CCc1ccccc1" , reported IC50: 390

Memo: "NC(=O)N(O)CCNC(=O)c1ccccc1Oc1ccccc1" , reported IC50: 240

Memo: "C[C@H](CN(O)C(N)=O)NC(=O)c1cccc(Oc2ccccc2)c1" , reported IC50: 210

Memo: "NC(=O)N(O)CCNC(=O)c1cccc(Oc2ccccc2)c1" , reported IC50: 230

Memo: CC(/C=C/c1cccc(Oc2ccccc2)c1)NC(=O)CN(O)C(N)=O (stereo not drawn) , reported IC50: 730

Memo: "NC(=O)N(O)CCNC(=O)c1cccc(Oc2ccc(Cl)cc2)c1" , reported IC50: 160

Memo: "COc1ccc(Oc2cccc(CN(C)CCN(O)C(N)=O)c2)cc1" , reported IC50: 200

Memo: "CN(CCN(O)C(N)=O)C(=O)Cc1ccc(Br)cc1" , reported IC50: 1800

Memo: "NC(=O)N(O)CCCNC(=O)c1cccc(Oc2ccccc2)c1" , reported IC50: 70

Memo: CC(C)Cc1ccc(C(C)C(=O)NCCN(O)C(N)=O)cc1 (stereo not drawn) , reported IC50: 5000
